In this section, each of the compounds is paired with its reported melting point.

{"compound": "N#Cc1c[nH]c2cccc(OCc3ccccc3)c12", "melting point": "139 to 141 °C"}
{"compound": "CCN(C(=O)c1cc(C(C)(C)C)c(OC(=O)c2cc(C(C)(C)C)c(O)c(C(C)(C)C)c2)c(C(C)(C)C)c1)c1ccc(C)cc1", "melting point": "214 to 216 °C"}
{"compound": "CCCS(=O)(=O)NCC1Cc2ccc(C3=NNC(=O)CC3)cc2C1 (stereo not given)", "melting point": "158 to 159 °C"}
{"compound": "CC(Cl)CC(C)Oc1ccc(-c2ccc(C(=O)Oc3ccc(C#N)cc3)cc2)cc1 (stereo not given)", "melting point": "104 °C"}
{"compound": "Cc1oc(-c2ccccc2)nc1COc1ccc(COc2nn(Cc3ccc(OCc4nc(-c5ccccc5)oc4C)cc3)cc2CO)cc1", "melting point": "157 to 158 °C"}
{"compound": "Cc1nc(CC(=O)O)no1", "melting point": "101 to 103 °C"}
{"compound": "CCCCc1nc(C(O)CC)c(C(N)=O)n1Cc1ccc(-c2ccccc2C(=O)O)cc1 (stereo not given)", "melting point": "> 120 °C"}
{"compound": "O=C1NC(=S)SC1=C(c1ccccc1)c1ccccc1", "melting point": "192 to 194 °C"}
{"compound": "COc1cc(OC)c(C=CC(=O)c2ccc(S(N)(=O)=O)cc2)cc1C#Cc1ccccc1N", "melting point": "167 to 169 °C"}
{"compound": "COC(OC)C(C)n1nnc2ccc(OCc3ccccc3)cc21 (stereo not given)", "melting point": "101 to 103 °C"}
{"compound": "CCCCCCCCC/C=C/C(=O)N[C@H]1CCCNC(=O)C1", "melting point": "87 to 88 °C"}
{"compound": "CCCSC1NC(c2ccc(Cl)cc2)=NN(CC(F)(F)F)C1=O (stereo not given)", "melting point": "99 to 100 °C"}
{"compound": "N#Cc1cc(NC(=O)c2sc3ccccc3c2Cl)ccc1N1CCC(N2CCOCC2)CC1", "melting point": "227 to 228 °C"}
{"compound": "CN1C(CO)=Cc2cc(S(N)(=O)=O)sc2S1(=O)=O", "melting point": "144 to 146 °C"}
{"compound": "COc1ccc2c(c1)C=C(/C=C/C=C/C=C/C(=O)O)C(C)(C)O2", "melting point": "154 to 156 °C"}
{"compound": "COC(=O)c1cc(I)ccc1OC", "melting point": "48 to 50 °C"}
{"compound": "Cc1n[nH]c2cc(-c3nn(C(C)c4oc5ccccc5c(=O)c4-c4cccc(F)c4)c4ncnc(N)c34)ccc12 (stereo not given)", "melting point": "158 to 161 °C"}
{"compound": "O=C(Nc1ccc(Oc2ccc(C(F)(F)F)cc2)cc1)Nc1nonc1-c1ccc(Cl)cc1", "melting point": "208 °C"}
{"compound": "COc1c(Cl)cc(NC(=O)OCCCl)c(OC)c1[N+](=O)[O-]", "melting point": "93 °C"}
{"compound": "COc1ccc(S(=O)(=O)C(C/C=C(\\C)CCC=C(C)C)(Cc2ccc(OCCN3CCOCC3)cc2)C(=O)NO)cc1 (stereo not given)", "melting point": "61 °C"}
{"compound": "CCCn1cc2c(C3(F)C(=O)Nc4ccc(Br)cc43)ncnc2n1 (stereo not given)", "melting point": "184 to 186 °C"}
{"compound": "CC(=O)OC1CSC(Oc2ccc(C(C)=O)nc2)C(OC(C)=O)C1OC(C)=O (stereo not given)", "melting point": "149 °C"}
{"compound": "CCOc1cc(-c2cc(C(F)(F)F)n3ncc(C(=O)Nc4cc(S(=O)(=O)NCCO)sc4Cl)c3n2)ccc1C(F)(F)F", "melting point": "250 °C"}
{"compound": "CCOc1ccc(C2=NC[C@@H](OC(=O)Nc3ccccc3)[C@H](c3ccccc3)O2)cc1 (racemic)", "melting point": "80 °C"}
{"compound": "CC12CC(=CO)C(=O)C=C1CCC1C2CCC2(C)C1C=CC2(C)O (stereo not given)", "melting point": "176 °C"}
{"compound": "COC(=O)[C@H](CCSC)NC(=O)c1ccc(/C=C(/Cn2ccnc2)c2ccc(F)cc2)cc1", "melting point": "54 to 57 °C"}
{"compound": "CC1(C)C(=O)Nc2cc(C=O)ccc2N(CC2CC2)C1=O", "melting point": "124 to 125 °C"}
{"compound": "CCOC(=O)c1cn(C2CC2)c2c(F)c(F)c(F)cc2c1=O", "melting point": "167 to 168 °C"}
{"compound": "O[C@@H]1CNC[C@H](c2ccc(C(F)(F)F)cc2)C1 (relative stereo)", "melting point": "189 to 192 °C"}
{"compound": "Cc1nc2c(c(-c3ccccc3)nn2C)c(-c2ccc(F)cc2)c1CO", "melting point": "231 to 236 °C"}
